Test system: LCLC-103H
Assay: relative viability (nuclei count vs DMSO), 5 days (fraction); higher = more cells survive
Conditions: first compound 0.1265 µM
Listing: relative viability of selected compounds

Any idea what relative viability was measured for C[C@@H]1CN(CC(=O)Nc2ccc3c(c2)Cc2cccc(-c4cc(=O)cc(N5CCOCC5)o4)c2S3)C[C@H](C)O1 + C[C@]1(O)C[C@@H](c2nc(-c3ccc4ccc(-c5ccccc5)nc4c3)c3c(N)nccn32)C1 [Linsitinib] (partner 1 µM) ?
0.896

Proceed to the following item.
Any idea what relative viability was measured for C[C@@H]1CN(CC(=O)Nc2ccc3c(c2)Cc2cccc(-c4cc(=O)cc(N5CCOCC5)o4)c2S3)C[C@H](C)O1 + Cc1nc(Nc2ncc(C(=O)Nc3c(C)cccc3Cl)s2)cc(N2CCN(CCO)CC2)n1 [Dasatinib] (partner 0.075 µM) ?
0.436
